biological target: Serotonin, 5HT3 (Mus musculus, UniProt P23979)
Sequence (P23979 24-489): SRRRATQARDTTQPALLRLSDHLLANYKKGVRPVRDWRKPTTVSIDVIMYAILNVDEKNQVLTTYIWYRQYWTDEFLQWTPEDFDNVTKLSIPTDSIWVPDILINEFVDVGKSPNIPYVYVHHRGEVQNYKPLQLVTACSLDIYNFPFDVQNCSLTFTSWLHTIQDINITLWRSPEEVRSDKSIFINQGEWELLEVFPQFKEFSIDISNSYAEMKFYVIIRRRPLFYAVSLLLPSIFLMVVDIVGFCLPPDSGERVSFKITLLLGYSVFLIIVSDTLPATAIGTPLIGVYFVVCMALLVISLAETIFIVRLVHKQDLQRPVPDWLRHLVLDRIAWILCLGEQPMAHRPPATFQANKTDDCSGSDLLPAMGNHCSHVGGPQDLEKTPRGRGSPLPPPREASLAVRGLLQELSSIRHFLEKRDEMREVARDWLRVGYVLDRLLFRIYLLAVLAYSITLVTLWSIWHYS
parameter: pKd
pKd is a log-scale quantity: -log10 of the concentration expressed in molar.

Request: pKd, test system Serotonin, 5HT3 (Mus musculus, UniProt P23979), entry Cc1[nH]cnc1CCC(=O)c1cn(C)c2ccccc12 [[^3H]-GR65630]
9.46

----------
target: UniProt:P23979; test: biochemical; format: binding
parameter: pKi
pKi is a log-scale quantity: -log10 of the concentration expressed in molar.

Request: pKi, test system UniProt:P23979, entry CN1[C@@H]2CC[C@H]1C[C@@H](OC(=O)c1cc(Cl)cc(Cl)c1)C2 [MDL 72222]
8.08

----------
biological target: Serotonin, 5HT3 (Mus musculus, UniProt P23979); test: biochemical; type: binding; conditions: Pass 3 screening, nine concentrations; read-out: Ki Determination
parameter: Ki

May I ask what Ki has been recorded for COC(=O)[C@H]1[C@@H](OC(=O)c2ccccc2)C[C@@H]2CC[C@H]1N2C ?
3.09 µM

----------
target: Glutamic Acid Decarboxylase; assay: Glutamic Acid Decarboxylase; substrate [14C]Glutamic acid; conditions: read-out: Ref Kj
parameter: pKi
pKi is a log-scale quantity: -log10 of the concentration expressed in molar.

Request: pKi, test system Glutamic Acid Decarboxylase, entry NOCC(=O)O [Aminooxyacetic acid]
9.30

----------
target: Thromboxane A2 (Homo sapiens, UniProt P21731); construct: from human cell lines; endogenous in cells; test: Thromboxane A2 (Human); [3H]SQ 29,548; conditions: reference compound, QA/QC; read-out: Ref Kj
Sequence (P21731 whole entry): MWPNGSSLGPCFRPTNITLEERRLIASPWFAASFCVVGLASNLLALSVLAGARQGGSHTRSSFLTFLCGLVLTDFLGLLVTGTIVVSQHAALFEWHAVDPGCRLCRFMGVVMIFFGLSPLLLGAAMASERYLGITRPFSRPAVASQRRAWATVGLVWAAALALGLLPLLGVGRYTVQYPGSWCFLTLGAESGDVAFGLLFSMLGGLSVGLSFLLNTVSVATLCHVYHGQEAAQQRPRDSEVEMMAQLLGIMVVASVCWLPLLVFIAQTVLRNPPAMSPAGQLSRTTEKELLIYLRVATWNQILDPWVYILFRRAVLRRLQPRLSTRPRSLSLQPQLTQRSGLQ
parameter: Ki
Include the unit right after the number.

May I ask what Ki has been recorded for CCCCC[C@@H](O)/C=C/[C@H]1C[C@H]2C[C@@H]([C@@H]1C/C=C\CCCC(=O)O)C2(C)C ?
0.0303 µM

----------
biological target: UniProtKB H0WCX4
Sequence (H0WCX4 1-619): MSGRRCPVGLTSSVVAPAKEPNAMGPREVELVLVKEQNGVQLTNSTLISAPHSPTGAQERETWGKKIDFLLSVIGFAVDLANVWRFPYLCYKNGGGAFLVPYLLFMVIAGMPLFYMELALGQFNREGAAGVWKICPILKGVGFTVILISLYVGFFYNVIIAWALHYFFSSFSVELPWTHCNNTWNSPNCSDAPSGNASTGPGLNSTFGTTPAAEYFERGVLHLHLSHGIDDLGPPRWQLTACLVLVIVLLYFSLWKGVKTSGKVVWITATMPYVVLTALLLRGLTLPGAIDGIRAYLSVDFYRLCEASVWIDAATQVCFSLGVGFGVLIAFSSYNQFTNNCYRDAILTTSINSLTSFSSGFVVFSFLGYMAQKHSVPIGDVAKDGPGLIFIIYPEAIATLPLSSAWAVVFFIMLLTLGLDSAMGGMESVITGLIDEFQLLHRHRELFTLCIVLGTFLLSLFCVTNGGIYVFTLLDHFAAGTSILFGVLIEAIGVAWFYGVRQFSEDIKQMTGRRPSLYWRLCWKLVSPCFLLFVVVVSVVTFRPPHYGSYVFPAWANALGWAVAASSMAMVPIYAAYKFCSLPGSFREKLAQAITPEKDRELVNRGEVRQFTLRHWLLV
parameter: Kd

May I ask what Kd has been recorded for COC(=O)[C@H]1[C@@H](c2ccc(F)cc2)C[C@@H]2CC[C@H]1N2C [[^3H]-WIN 35-428] ?
28 nM

----------
target: Monoamine Oxidase A, Peripheral (Rattus norvegicus)
Sequence (P21396 whole entry, looked up): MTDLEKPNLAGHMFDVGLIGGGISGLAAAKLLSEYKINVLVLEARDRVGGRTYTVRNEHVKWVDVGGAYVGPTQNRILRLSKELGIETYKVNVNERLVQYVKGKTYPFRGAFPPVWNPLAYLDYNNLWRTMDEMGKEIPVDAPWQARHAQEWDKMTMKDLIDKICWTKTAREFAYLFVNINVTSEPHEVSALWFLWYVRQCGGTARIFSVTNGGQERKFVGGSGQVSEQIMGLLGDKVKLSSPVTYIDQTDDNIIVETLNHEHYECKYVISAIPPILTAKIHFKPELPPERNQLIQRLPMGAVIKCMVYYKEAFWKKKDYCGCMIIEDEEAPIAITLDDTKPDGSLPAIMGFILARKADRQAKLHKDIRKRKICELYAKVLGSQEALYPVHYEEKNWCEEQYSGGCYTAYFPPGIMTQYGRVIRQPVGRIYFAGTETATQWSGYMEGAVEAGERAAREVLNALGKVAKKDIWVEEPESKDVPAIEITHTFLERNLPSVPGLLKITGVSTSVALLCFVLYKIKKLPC
Counter-ions that a name gives are not always drawn.
parameter: pKi
pKi is a log-scale quantity: -log10 of the concentration expressed in molar.

May I ask what pKi has been recorded for NCCNC(=O)c1ncsc1-c1cccc(F)c1 [Ro 41-1049 HCl] ?
8.97

----------
target: Nicotinic (a-bungarotoxin insensitive); conditions: reference compound, QA/QC; read-out: Ref Kj
parameter: pKi
pKi is a log-scale quantity: -log10 of the concentration expressed in molar.

May I ask what pKi has been recorded for Clc1ccc([C@@H]2C[C@H]3CC[C@@H]2N3)cn1 (racemic) [(+/−) epibatidine] ?
10.23

----------
target: UniProt H0WCX4; assay: biochemical; type: binding, Guinea Pig
parameter: Ki (nM)
Could you give me the number in nM? Just the number is fine.

Request: Ki, test system UniProt H0WCX4, entry COC(=O)[C@H]1[C@@H](OC(=O)c2ccccc2)C[C@@H]2CC[C@H]1N2C
321

----------
molecular target: Cannabinoid, CB1 (Homo sapiens, UniProt P21554); assay: Cannabinoid, CB1 (Human recombinant); [3H]-CP55940
Sequence (P21554 whole entry): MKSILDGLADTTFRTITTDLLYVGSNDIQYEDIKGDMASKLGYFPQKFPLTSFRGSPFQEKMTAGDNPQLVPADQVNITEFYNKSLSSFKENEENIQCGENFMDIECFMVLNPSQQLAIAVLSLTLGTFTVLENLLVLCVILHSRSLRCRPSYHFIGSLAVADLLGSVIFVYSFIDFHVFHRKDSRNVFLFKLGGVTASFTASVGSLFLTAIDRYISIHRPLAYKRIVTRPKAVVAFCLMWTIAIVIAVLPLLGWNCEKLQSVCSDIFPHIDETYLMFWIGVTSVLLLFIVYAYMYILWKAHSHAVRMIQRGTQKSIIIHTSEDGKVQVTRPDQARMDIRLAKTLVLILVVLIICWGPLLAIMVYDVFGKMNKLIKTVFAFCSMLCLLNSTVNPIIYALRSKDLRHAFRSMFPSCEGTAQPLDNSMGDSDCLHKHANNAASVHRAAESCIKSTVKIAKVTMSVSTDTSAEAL
parameter: Ki (nM)
Could you give me the number in nM? Just the number is fine.

May I ask what Ki has been recorded for CCCCCCC(C)(C)c1cc(O)c2c(c1)OC(C)(C)[C@@H]1CC=C(CO)C[C@@H]21 ?
0.3

----------
target: Adenosine, A1 (UniProt P25099)
Sequence (P25099 whole entry, looked up): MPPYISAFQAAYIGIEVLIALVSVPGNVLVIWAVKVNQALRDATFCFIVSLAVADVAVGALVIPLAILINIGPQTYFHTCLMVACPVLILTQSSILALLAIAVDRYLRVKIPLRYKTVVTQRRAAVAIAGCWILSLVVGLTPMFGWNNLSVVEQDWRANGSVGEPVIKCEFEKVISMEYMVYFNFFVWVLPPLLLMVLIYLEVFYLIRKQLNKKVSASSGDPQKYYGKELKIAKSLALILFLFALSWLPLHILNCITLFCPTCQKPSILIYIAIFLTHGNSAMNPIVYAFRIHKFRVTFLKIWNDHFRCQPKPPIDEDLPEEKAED
parameter: Ki (nM)
Could you give me the number in nM? Just the number is fine.

May I ask what Ki has been recorded for Nc1nc(Cl)nc2c1ncn2[C@@H]1O[C@H](CO)[C@@H](O)[C@H]1O [2-Chloroadenosine (2-CADO), 2-Chloroadenosine] ?
58.7

----------
target: Imidazoline, I1; assay: Imidazoline, I1; [125I]-Clonidine; settings: reference compound, QA/QC; read-out: Ref Kj
parameter: pKi
pKi is a log-scale quantity: -log10 of the concentration expressed in molar.

Request: pKi, test system Imidazoline, I1, entry Clc1cc(I)cc(Cl)c1NC1=NCCN1 [Iodoclonidine]
8.10

----------
target: Leukotrine D4, LTB4; test: Leukotrine D4, LTB4; [3H]LTD4; details: reference compound, QA/QC; read-out: Ref Kj
parameter: Ki (nM)
Could you give me the number in nM? Just the number is fine.

May I ask what Ki has been recorded for CCCCC/C=C\C\C=C/C=C/C=C/[C@@H](SC[C@H](N)C(=O)NCC(=O)O)[C@@H](O)CCCC(=O)O [LTD4] ?
8.85

----------
target: Histamine, H3; assay: Histamine, H3; [3H]N-a-MeHistamine; conditions: reference compound, QA/QC; read-out: Ref Kj
parameter: Ki
Include the unit right after the number.

May I ask what Ki has been recorded for CNCCc1cnc[nH]1 ?
1.31 nM

Data origin: patent US20020187514A1
